details: in benzyl alcohol, 308.15 K
Measure: solubility (mole fraction)
Please respond with just the number, no unit label.

Report solubility (mole fraction) for "O=C1NC(=O)c2cc([N+](=O)[O-])ccc21" please.
0.0331

---

conditions: in ethyl acetate, 285.65 K
Measure: solubility (mole fraction)

Report solubility (mole fraction) for "O=C1NC(=O)c2cc([N+](=O)[O-])ccc21" please.
0.0123

---

conditions: in benzyl alcohol, 288.15 K
Measure: solubility (mole fraction)

Report solubility (mole fraction) for "O=C1NC(=O)c2cc([N+](=O)[O-])ccc21" please.
0.0202

---

details: in chloroform, 323.15 K
Measure: solubility (mole fraction)
Please respond with just the number, no unit label.

Report solubility (mole fraction) for "O=C1NC(=O)c2cc([N+](=O)[O-])ccc21" please.
0.00201

---

conditions: in acetonitrile, 315.65 K
Measure: solubility (mole fraction)
Please respond with just the number, no unit label.

Report solubility (mole fraction) for "O=C1NC(=O)c2cc([N+](=O)[O-])ccc21" please.
0.00858

---

details: in DMF, 308.15 K
Measure: solubility (mole fraction)
Please respond with just the number, no unit label.

Report solubility (mole fraction) for "O=C1NC(=O)c2cc([N+](=O)[O-])ccc21" please.
0.104

---

details: in chloroform, 285.65 K
Measure: solubility (mole fraction)
Please respond with just the number, no unit label.

Report solubility (mole fraction) for "O=C1NC(=O)c2cc([N+](=O)[O-])ccc21" please.
0.000775

---

details: in 1,4-dioxane, 288.15 K
Measure: solubility (mole fraction)
Please respond with just the number, no unit label.

Report solubility (mole fraction) for "O=C1NC(=O)c2cc([N+](=O)[O-])ccc21" please.
0.0249

---

details: in ethyl acetate, 313.15 K
Measure: solubility (mole fraction)
Please respond with just the number, no unit label.

Report solubility (mole fraction) for "O=C1NC(=O)c2cc([N+](=O)[O-])ccc21" please.
0.022

---

settings: in DMF, 285.65 K
Measure: solubility (mole fraction)
Please respond with just the number, no unit label.

Report solubility (mole fraction) for "O=C1NC(=O)c2cc([N+](=O)[O-])ccc21" please.
0.0535

---

conditions: in acetone, 313.15 K
Measure: solubility (mole fraction)

Report solubility (mole fraction) for "O=C1NC(=O)c2cc([N+](=O)[O-])ccc21" please.
0.034

---

details: in 2-butanone, 295.65 K
Measure: solubility (mole fraction)

Report solubility (mole fraction) for "O=C1NC(=O)c2cc([N+](=O)[O-])ccc21" please.
0.0244

---

settings: in cyclohexanone, 305.65 K
Measure: solubility (mole fraction)
Please respond with just the number, no unit label.

Report solubility (mole fraction) for "O=C1NC(=O)c2cc([N+](=O)[O-])ccc21" please.
0.0527

---

conditions: in ethyl acetate, 305.65 K
Measure: solubility (mole fraction)
Please respond with just the number, no unit label.

Report solubility (mole fraction) for "O=C1NC(=O)c2cc([N+](=O)[O-])ccc21" please.
0.019

---

conditions: in chloroform, 278.15 K
Measure: solubility (mole fraction)
Please respond with just the number, no unit label.

Report solubility (mole fraction) for "O=C1NC(=O)c2cc([N+](=O)[O-])ccc21" please.
0.000625

---

conditions: in acetone, 305.65 K
Measure: solubility (mole fraction)
Please respond with just the number, no unit label.

Report solubility (mole fraction) for "O=C1NC(=O)c2cc([N+](=O)[O-])ccc21" please.
0.0305

---

settings: in benzyl alcohol, 323.15 K
Measure: solubility (mole fraction)
Please respond with just the number, no unit label.

Report solubility (mole fraction) for "O=C1NC(=O)c2cc([N+](=O)[O-])ccc21" please.
0.0466

---

conditions: in acetone, 283.15 K
Measure: solubility (mole fraction)
Please respond with just the number, no unit label.

Report solubility (mole fraction) for "O=C1NC(=O)c2cc([N+](=O)[O-])ccc21" please.
0.0211

---

conditions: in chloroform, 303.15 K
Measure: solubility (mole fraction)
Please respond with just the number, no unit label.

Report solubility (mole fraction) for "O=C1NC(=O)c2cc([N+](=O)[O-])ccc21" please.
0.00124

---

details: in acetonitrile, 288.15 K
Measure: solubility (mole fraction)
Please respond with just the number, no unit label.

Report solubility (mole fraction) for "O=C1NC(=O)c2cc([N+](=O)[O-])ccc21" please.
0.00503

---

settings: in methanol, 305.65 K
Measure: solubility (mole fraction)
Please respond with just the number, no unit label.

Report solubility (mole fraction) for "O=C1NC(=O)c2cc([N+](=O)[O-])ccc21" please.
0.00397

---

conditions: in isopropanol, 288.15 K
Measure: solubility (mole fraction)
Please respond with just the number, no unit label.

Report solubility (mole fraction) for "O=C1NC(=O)c2cc([N+](=O)[O-])ccc21" please.
0.00115

---

settings: in ethanol, 275.65 K
Measure: solubility (mole fraction)
Please respond with just the number, no unit label.

Report solubility (mole fraction) for "O=C1NC(=O)c2cc([N+](=O)[O-])ccc21" please.
0.000799

---

conditions: in 2-butanone, 308.15 K
Measure: solubility (mole fraction)
Please respond with just the number, no unit label.

Report solubility (mole fraction) for "O=C1NC(=O)c2cc([N+](=O)[O-])ccc21" please.
0.0302

---

details: in ethanol, 308.15 K
Measure: solubility (mole fraction)
Please respond with just the number, no unit label.

Report solubility (mole fraction) for "O=C1NC(=O)c2cc([N+](=O)[O-])ccc21" please.
0.00288

---

conditions: in acetone, 273.15 K
Measure: solubility (mole fraction)
Please respond with just the number, no unit label.

Report solubility (mole fraction) for "O=C1NC(=O)c2cc([N+](=O)[O-])ccc21" please.
0.0175

---

settings: in isopropanol, 315.65 K
Measure: solubility (mole fraction)
Please respond with just the number, no unit label.

Report solubility (mole fraction) for "O=C1NC(=O)c2cc([N+](=O)[O-])ccc21" please.
0.0034

---

conditions: in 2-butanone, 303.15 K
Measure: solubility (mole fraction)
Please respond with just the number, no unit label.

Report solubility (mole fraction) for "O=C1NC(=O)c2cc([N+](=O)[O-])ccc21" please.
0.0279

---

conditions: in benzyl alcohol, 313.15 K
Measure: solubility (mole fraction)
Please respond with just the number, no unit label.

Report solubility (mole fraction) for "O=C1NC(=O)c2cc([N+](=O)[O-])ccc21" please.
0.0372

---

settings: in 1,4-dioxane, 315.65 K
Measure: solubility (mole fraction)
Please respond with just the number, no unit label.

Report solubility (mole fraction) for "O=C1NC(=O)c2cc([N+](=O)[O-])ccc21" please.
0.0384

---

details: in acetonitrile, 323.15 K
Measure: solubility (mole fraction)
Please respond with just the number, no unit label.

Report solubility (mole fraction) for "O=C1NC(=O)c2cc([N+](=O)[O-])ccc21" please.
0.00976

---

settings: in acetonitrile, 295.65 K
Measure: solubility (mole fraction)

Report solubility (mole fraction) for "O=C1NC(=O)c2cc([N+](=O)[O-])ccc21" please.
0.00584

---

settings: in benzyl alcohol, 278.15 K
Measure: solubility (mole fraction)
Please respond with just the number, no unit label.

Report solubility (mole fraction) for "O=C1NC(=O)c2cc([N+](=O)[O-])ccc21" please.
0.0154

---

conditions: in acetone, 298.15 K
Measure: solubility (mole fraction)
Please respond with just the number, no unit label.

Report solubility (mole fraction) for "O=C1NC(=O)c2cc([N+](=O)[O-])ccc21" please.
0.0271

---

conditions: in chloroform, 275.65 K
Measure: solubility (mole fraction)
Please respond with just the number, no unit label.

Report solubility (mole fraction) for "O=C1NC(=O)c2cc([N+](=O)[O-])ccc21" please.
0.000577

---

settings: in methanol, 303.15 K
Measure: solubility (mole fraction)
Please respond with just the number, no unit label.

Report solubility (mole fraction) for "O=C1NC(=O)c2cc([N+](=O)[O-])ccc21" please.
0.00372

---

conditions: in DMF, 295.65 K
Measure: solubility (mole fraction)
Please respond with just the number, no unit label.

Report solubility (mole fraction) for "O=C1NC(=O)c2cc([N+](=O)[O-])ccc21" please.
0.0732

---

details: in acetonitrile, 303.15 K
Measure: solubility (mole fraction)
Please respond with just the number, no unit label.

Report solubility (mole fraction) for "O=C1NC(=O)c2cc([N+](=O)[O-])ccc21" please.
0.00679

---

conditions: in ethanol, 315.65 K
Measure: solubility (mole fraction)
Please respond with just the number, no unit label.

Report solubility (mole fraction) for "O=C1NC(=O)c2cc([N+](=O)[O-])ccc21" please.
0.00378

---

details: in cyclohexanone, 323.15 K
Measure: solubility (mole fraction)

Report solubility (mole fraction) for "O=C1NC(=O)c2cc([N+](=O)[O-])ccc21" please.
0.0708

---

settings: in ethyl acetate, 315.65 K
Measure: solubility (mole fraction)
Please respond with just the number, no unit label.

Report solubility (mole fraction) for "O=C1NC(=O)c2cc([N+](=O)[O-])ccc21" please.
0.0231
